Molecular target: MIF (Homo sapiens, UniProt P14174)
Assay: Time dependence in the MIF tautomerase activity assay (preincubation)
Type: biochemical
Conditions: 20 minutes preincubation with MIF
Experimental readout: IC50

- Compound: "N#Cc1c(NC2CN(C(=O)CCl)C2)c2ccccc2n(Cc2ccc(F)cc2)c1=O [Compound 1]"
  Result: "6 µM"

----------
Entries annotated with measured inhibition at 2.5 µM
System: LPS-stimulated PBMCs
Experiment: Cytokine production in LPS-stimulated human PBMCs (ELISA)
Format: cell-based
Details: Homo sapiens, PBMC; LPS-stimulated PBMCs, compound at 2.5 uM, 1 hour preincubation, 20 hours; read-out: percent inhibition of IL-1β production
Experimental readout: inhibition at 2.5 µM

- Compound: "Cn1c(=O)c(C#N)c(NC2CN(C(=O)c3cccs3)C2)c2ccccc21 [Compound 6]"
  Result: "10 to 50%"
- Compound: "Cn1c(=O)c(C#N)c(NC2CCN(C(=O)c3cccs3)CC2)c2ccccc21 [Compound 5]"
  Result: "50 to 70%"
- Compound: "N#Cc1c(NC2CN(C(=O)CCl)C2)c2ccccc2n(Cc2ccc(F)cc2)c1=O [Compound 1]"
  Result: "> 70%"
- Compound: "CC(C)C(=O)c1c(C(C)C)nn2ccccc12 [Ibudilast, reference compound]"
  Result: "50 to 70%"
- Compound: "N#Cc1c(NC2CN(C(=O)c3ccncc3)C2)c2ccccc2n(Cc2ccc(F)cc2)c1=O [Compound 7]"
  Result: "50 to 70%"

----------
Biological target: Native human MIF (Homo sapiens, UniProt P14174)
Sequence (P14174 2-115 limits assumed): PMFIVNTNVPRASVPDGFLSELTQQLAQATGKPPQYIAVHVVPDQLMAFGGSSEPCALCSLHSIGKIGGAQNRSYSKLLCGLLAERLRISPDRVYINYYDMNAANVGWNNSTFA
Experimental readout: IC50

- Molecule: "C=CC(=O)N1CCN(c2c(C#N)c(=O)n(Cc3ccc(F)cc3)c3ccccc23)CC1 [Compound 2]"
  Experimental readout: "IC50"
  Result: "1 to 100 µM"
- Molecule: "N#Cc1c(NC2CN(C(=O)CCl)C2)c2ccccc2n(Cc2ccc(F)cc2)c1=O [Compound 1]"
  Experimental readout: "IC50"
  Result: "1 to 100 µM"

----------
Test system: LPS-stimulated PBMCs
Experiment: Cytokine production in LPS-stimulated human PBMCs (ELISA)
Type: cell-based
Details: Homo sapiens, PBMC; LPS-stimulated PBMCs, compound at 2.5 uM, 1 hour preincubation, 20 hours; read-out: percent inhibition of IL-1β production
Entries annotated with measured inhibition at 2.5 µM

- Compound smiles: "C=CC(=O)N1CC(Nc2c(C#N)c(=O)n(CCOCC)c3ccccc23)C1"
  inhibition at 2.5 µM: "50 to 70%"
- Compound smiles: "C=CC(=O)N1CCC(Nc2c(C#N)c(=O)n(C)c3ccccc23)CC1"
  inhibition at 2.5 µM: "10 to 50%"
- Compound smiles: "C=CC(=O)N1CCN(c2c(C#N)c(=O)n(Cc3ccc(F)cc3)c3ccccc23)CC1"
  inhibition at 2.5 µM: "> 70%"
- Compound smiles: "N#Cc1c(NC2CN(C(=O)c3cccs3)C2)c2ccccc2n(Cc2ccc(F)cc2)c1=O"
  inhibition at 2.5 µM: "50 to 70%"

----------
Biological target: MIF (Homo sapiens, UniProt P14174)
Assay: Time dependence in the MIF tautomerase activity assay (preincubation)
Type: biochemical
Details: 0 minutes, no preincubation with MIF
pIC50: −log10 of the molar value.
Experimental readout: pIC50

- Compound smiles: "N#Cc1c(NC2CN(C(=O)CCl)C2)c2ccccc2n(Cc2ccc(F)cc2)c1=O"
  Result number: 4.62

----------
Entries annotated with measured inhibition at 25 µM
Test system: LPS-stimulated PBMCs
Assay: Cytokine production in LPS-stimulated human PBMCs (ELISA)
Type: cell-based
Conditions: Homo sapiens, PBMC; LPS-stimulated PBMCs, compound at 25 uM, 1 hour preincubation, 20 hours; read-out: percent inhibition of IL-1β production

- Compound: "CC(C)C(=O)c1c(C(C)C)nn2ccccc12 [Ibudilast, reference compound]"
  inhibition at 25 µM: "> 70%"
- Compound: "N#Cc1c(NC2CN(C(=O)c3ccncc3)C2)c2ccccc2n(Cc2ccc(F)cc2)c1=O"
  inhibition at 25 µM: "> 70%"
- Compound: "C=CC(=O)N1CC(Nc2c(C#N)c(=O)n(CCOCC)c3ccccc23)C1"
  inhibition at 25 µM: "10 to 50%"
- Compound: "C=CC(=O)N1CCN(c2c(C#N)c(=O)n(Cc3ccc(F)cc3)c3ccccc23)CC1"
  inhibition at 25 µM: "> 70%"
- Compound: "Cn1c(=O)c(C#N)c(NC2CN(C(=O)c3cccs3)C2)c2ccccc21"
  inhibition at 25 µM: "10 to 50%"
- Compound: "C=CC(=O)N1CCC(Nc2c(C#N)c(=O)n(C)c3ccccc23)CC1"
  inhibition at 25 µM: "50 to 70%"
- Compound: "N#Cc1c(NC2CN(C(=O)CCl)C2)c2ccccc2n(Cc2ccc(F)cc2)c1=O"
  inhibition at 25 µM: "> 70%"
- Compound: "Cn1c(=O)c(C#N)c(NC2CCN(C(=O)c3cccs3)CC2)c2ccccc21"
  inhibition at 25 µM: "> 70%"
- Compound: "N#Cc1c(NC2CN(C(=O)c3cccs3)C2)c2ccccc2n(Cc2ccc(F)cc2)c1=O"
  inhibition at 25 µM: "> 70%"

----------
Tested on: LPS-stimulated PBMCs
Experiment: Cytokine production in LPS-stimulated human PBMCs (ELISA)
Format: cell-based
Conditions: Homo sapiens, PBMC; LPS-stimulated PBMCs, compound at 2.5 uM, 1 hour preincubation, 20 hours; read-out: percent inhibition of IL-6 production
Entries annotated with measured inhibition at 2.5 µM
Experimental readout: inhibition at 2.5 µM

- Molecule: "C=CC(=O)N1CC(Nc2c(C#N)c(=O)n(CCOCC)c3ccccc23)C1 [Compound 3]"
  Experimental readout: "inhibition at 2.5 µM"
  Result: "< 10%"
- Molecule: "N#Cc1c(NC2CN(C(=O)c3cccs3)C2)c2ccccc2n(Cc2ccc(F)cc2)c1=O [Compound 8]"
  Experimental readout: "inhibition at 2.5 µM"
  Result: "< 10%"
- Molecule: "Cn1c(=O)c(C#N)c(NC2CN(C(=O)c3cccs3)C2)c2ccccc21 [Compound 6]"
  Experimental readout: "inhibition at 2.5 µM"
  Result: "10 to 50%"
- Molecule: "C=CC(=O)N1CCC(Nc2c(C#N)c(=O)n(C)c3ccccc23)CC1 [Compound 4]"
  Experimental readout: "inhibition at 2.5 µM"
  Result: "10 to 50%"
- Molecule: "CC(C)C(=O)c1c(C(C)C)nn2ccccc12 [Ibudilast, reference compound]"
  Experimental readout: "inhibition at 2.5 µM"
  Result: "< 10%"

----------
Test system: LPS-stimulated PBMCs
Assay: Cytokine production in LPS-stimulated human PBMCs (ELISA)
Assay type: cell-based
Conditions: Homo sapiens, PBMC; LPS-stimulated PBMCs, compound at 2.5 uM, 1 hour preincubation, 20 hours; read-out: percent inhibition of TNF-α production
Method: MIF is secreted by monocytes/macrophages, activated T cells and several effector cells that play an important role in the perpetuation of inflammatory responses of the disease pathogenesis of several autoimmune and inflammatory disorders. […] Mono-Mac-6 Cells: The cellular efficacy of compound candidates is determined using the human monocytic cell line, Mono-Mac-6 cells (MM6 cells) as it has been shown that MM6 cells abundantly express MIF receptors CD74 and CXCR4. […]

- Compound: "C=CC(=O)N1CC(Nc2c(C#N)c(=O)n(CCOCC)c3ccccc23)C1"
  inhibition at 2.5 µM: "< 10%"
- Compound: "Cn1c(=O)c(C#N)c(NC2CCN(C(=O)c3cccs3)CC2)c2ccccc21"
  inhibition at 2.5 µM: "10 to 50%"
- Compound: "N#Cc1c(NC2CN(C(=O)c3ccncc3)C2)c2ccccc2n(Cc2ccc(F)cc2)c1=O"
  inhibition at 2.5 µM: "10 to 50%"
- Compound: "CC(C)C(=O)c1c(C(C)C)nn2ccccc12 [Ibudilast, reference compound]"
  inhibition at 2.5 µM: "> 70%"
- Compound: "N#Cc1c(NC2CN(C(=O)CCl)C2)c2ccccc2n(Cc2ccc(F)cc2)c1=O"
  inhibition at 2.5 µM: "10 to 50%"
- Compound: "Cn1c(=O)c(C#N)c(NC2CN(C(=O)c3cccs3)C2)c2ccccc21"
  inhibition at 2.5 µM: "10 to 50%"
- Compound: "C=CC(=O)N1CCC(Nc2c(C#N)c(=O)n(C)c3ccccc23)CC1"
  inhibition at 2.5 µM: "< 10%"
- Compound: "C=CC(=O)N1CCN(c2c(C#N)c(=O)n(Cc3ccc(F)cc3)c3ccccc23)CC1"
  inhibition at 2.5 µM: "10 to 50%"
- Compound: "N#Cc1c(NC2CN(C(=O)c3cccs3)C2)c2ccccc2n(Cc2ccc(F)cc2)c1=O"
  inhibition at 2.5 µM: "10 to 50%"
